B1: CPEB3 Ribozyme (parent)
chain: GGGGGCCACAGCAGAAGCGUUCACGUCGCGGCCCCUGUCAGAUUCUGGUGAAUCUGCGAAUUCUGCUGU

variants of: B1; assay: self-cleavage, relative activity (ratio to wild type); higher = more cleavage; co-transcriptional
For each of the variants below, state its self-cleavage.
No unit in the answer, only the number.

Bench note: what self-cleavage did C35A G50U show?
0.287

What about A42C U69C ?
1.05

What about U44A C54G ?
0.461

What about C35G G56C ?
0.331

What about G2A C54U ?
0.152

What about C29U C57A ?
0.154

What about U46G G47U ?
0.976

What about A15G U26A ?
0.905

What about G3A G68A ?
0.852

What about C6A C66A ?
0.386

What about C6G C7U ?
0.176

What about G4A A16G ?
0.737

What about G5A U69A ?
0.994

What about G41C G65A ?
0.426

What about C7A G11U ?
0.315

What about G1A G5C ?
0.0678

What about A16U ?
0.888

What about C34A U49C ?
0.79

What about U46A C63U ?
1.02

What about G17C C57U ?
0.18

What about C35A U44C ?
0.277

What about C34U C57A ?
0.315

What about G2U G4C ?
0.0426

What about A23C A60C ?
0.327

What about A23U C33A ?
0.876

What about G19A C29U ?
0.0995

What about G25A A42U ?
0.178

What about C32U A42U ?
0.933

What about G3A C34A ?
0.516

What about C29U U46A ?
0.699

What about U49A U53A ?
0.984

What about G14C C32A ?
0.25

What about U38A C57U ?
0.35

What about G30C U55C ?
0.388

What about C33U A42U ?
0.953

What about G11A U55A ?
0.348

What about A13G U55G ?
0.51

What about U55C C66G ?
0.437

What about G41A C63G ?
0.348

What about C24G C27G ?
0.192

What about U53C U69G ?
0.993

What about A42U U49C ?
0.915

What about A15C U26A ?
0.48

What about G5U G17C ?
0.0663

What about G25C G41A ?
0.123

What about A13G C63U ?
0.842

What about A52C U53C ?
0.806

What about U43C U64C ?
0.671

What about U21A U62A ?
0.853

What about C39G G41C ?
0.351

What about C57G G65A ?
0.37

What about A15C U49C ?
0.842

What about C33G U61C ?
0.341

What about U21C G68A ?
1

What about G2U G58A ?
0.0612

What about G41U G48C ?
0.952

What about C12G A52U ?
0.852

What about G47C G65A ?
0.963

What about A52U U62A ?
0.829

What about G11A A42U ?
0.548

What about G1U U38C ?
0.0816

What about U21C G50A ?
0.949

What about U43C G56A ?
0.861

What about G31U A59U ?
0.334

What about C39G A52U ?
0.858

What about G5A C35U ?
0.365

What about U53C A60G ?
0.711

What about C63G G65C ?
0.366

What about G17C C29A ?
0.367

What about G50A C63A ?
0.856

What about C35A U64G ?
0.318

What about U36G C54U ?
0.293

What about U44C C66A ?
0.502

What about C18G G47A ?
0.21

What about G5U U49C ?
0.232

What about G3U C35A ?
0.0237

What about G11C A59U ?
0.36

What about C34U U61A ?
0.952

What about C54A U55G ?
0.796
